TEST TARGET: PRMT5/MEP50 (Homo sapiens, UniProt O14744)
Sequence (O14744 whole entry): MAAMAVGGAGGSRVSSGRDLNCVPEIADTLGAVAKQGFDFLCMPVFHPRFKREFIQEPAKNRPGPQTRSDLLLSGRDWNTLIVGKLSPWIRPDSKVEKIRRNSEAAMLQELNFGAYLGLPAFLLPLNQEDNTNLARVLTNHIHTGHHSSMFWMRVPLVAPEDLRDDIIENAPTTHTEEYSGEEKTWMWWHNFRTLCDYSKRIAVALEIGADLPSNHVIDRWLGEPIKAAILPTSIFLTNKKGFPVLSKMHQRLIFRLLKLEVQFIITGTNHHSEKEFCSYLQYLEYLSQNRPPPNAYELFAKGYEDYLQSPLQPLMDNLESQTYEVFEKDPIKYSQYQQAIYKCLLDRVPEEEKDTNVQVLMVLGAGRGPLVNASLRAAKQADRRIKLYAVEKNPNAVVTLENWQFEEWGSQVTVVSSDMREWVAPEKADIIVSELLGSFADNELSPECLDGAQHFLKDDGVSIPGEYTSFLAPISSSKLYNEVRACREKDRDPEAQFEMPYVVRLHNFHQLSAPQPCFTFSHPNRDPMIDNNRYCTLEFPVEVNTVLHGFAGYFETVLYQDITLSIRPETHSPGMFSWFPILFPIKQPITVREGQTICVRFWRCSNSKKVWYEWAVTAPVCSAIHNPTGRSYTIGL
Sequence (Q9BQA1 whole entry partner): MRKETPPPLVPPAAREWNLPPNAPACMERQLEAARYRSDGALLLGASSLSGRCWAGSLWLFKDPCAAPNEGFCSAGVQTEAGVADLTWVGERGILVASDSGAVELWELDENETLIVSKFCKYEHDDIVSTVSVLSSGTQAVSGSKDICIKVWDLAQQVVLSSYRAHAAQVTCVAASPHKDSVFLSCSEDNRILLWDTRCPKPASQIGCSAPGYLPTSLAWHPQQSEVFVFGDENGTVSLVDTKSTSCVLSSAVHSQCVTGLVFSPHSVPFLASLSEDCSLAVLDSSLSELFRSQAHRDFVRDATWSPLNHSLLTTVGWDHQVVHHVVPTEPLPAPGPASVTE
ASSAY: MTase-Glo methyl transferase assay, Method A (Histone H4 peptide, 1 µM MTA, 24 h pre-incubation)
Format: biochemical
Parameters: made in house
MEASUREMENT CONTEXT: read-out: PRMT5 MTase Glo Ki (nM, Meth. A)

{"COMPOUND": "Cc1cc2cc(C(=O)N(Cc3ccc(Br)nn3)[C@@H]3CCCn4ncnc43)ccc2nc1N", "UNITS": "nM", "LT GT EQ": "=", "Ki": 0.17}
{"COMPOUND": "Cc1cc2cc(C(=O)N(Cc3ccc(N4CC(F)(F)C4)cn3)[C@H](C)c3ncccn3)ccc2nc1N", "UNITS": "nM", "LT GT EQ": "<", "Ki": 0.1}
{"COMPOUND": "Cc1cc2cc(C(=O)N(Cc3ccc(C(F)F)cn3)Cc3ncccc3F)ccc2nc1N", "UNITS": "nM", "LT GT EQ": "=", "Ki": 0.16}
{"COMPOUND": "Cc1cc2cc(C(=O)N(Cc3ccc(C#N)cn3)[C@H](C)c3ccccc3F)ccc2nc1N", "UNITS": "nM", "LT GT EQ": "=", "Ki": 0.03}
{"COMPOUND": "Cc1cc2cc(C(=O)N(Cc3ccc(C(F)(F)F)cn3)CC3CC3)c(F)cc2nc1N", "UNITS": "nM", "LT GT EQ": "=", "Ki": 0.21}
{"COMPOUND": "Cc1cc2cc(C(=O)N(Cc3ccc(C(F)(F)F)cn3)[C@@H](c3ncccn3)C3CC3)ccc2nc1N (single isomer, unassigned)", "UNITS": "nM", "LT GT EQ": "=", "Ki": 0.06}
{"COMPOUND": "COCCN(Cc1ccc(C(F)(F)F)cn1)C(=O)c1ccc2nc(N)c(C)cc2c1", "UNITS": "nM", "LT GT EQ": "=", "Ki": 0.79}
